# Tested on: HOP-62
# test summary: NCI tumour cell line growth inhibition, 48 h
Activity calls are given as the source filed them. No stated cut-off is given here; in the data, active = GI50 up to about 1.1 µM and inactive = higher.
Parameter call: string, one of 1 (active), -1 (inactive)

Hi, sorry to bother you, what did the test record for CCN(C(=O)N[C@@H](Cc1ccccc1)C(=O)N[C@@H](CC(C)C)C(=O)OC)c1ccccc1 ? -1

Outcome? CCCCCCCCCCCCCCCC(=O)OCC1OC(n2ccc(N)nc2=O)C(O)C1O (stereo not given) 1

Outcome? CC1CCC(C(C)C)C(O[C@@H]2OC(=O)C[C@@H]2Sc2ccccc2)C1 (stereo not given in full) -1

Dear all, I need the recorded test outcome for Cn1c(=O)c2c(nc(N)n2C2OC(CO)C(O)C2O)n(C)c1=O (stereo not given) , thank you. -1

I would be grateful if you could indicate the recorded call for Cc1ccc2cc3c(ccc4ccccc43)c3c2c1CC3 . -1
